system: human CaSR (Homo sapiens)
Construct: expressed in transfected cells; host or cells: CHO cells
Sequence (P41180 20-1078): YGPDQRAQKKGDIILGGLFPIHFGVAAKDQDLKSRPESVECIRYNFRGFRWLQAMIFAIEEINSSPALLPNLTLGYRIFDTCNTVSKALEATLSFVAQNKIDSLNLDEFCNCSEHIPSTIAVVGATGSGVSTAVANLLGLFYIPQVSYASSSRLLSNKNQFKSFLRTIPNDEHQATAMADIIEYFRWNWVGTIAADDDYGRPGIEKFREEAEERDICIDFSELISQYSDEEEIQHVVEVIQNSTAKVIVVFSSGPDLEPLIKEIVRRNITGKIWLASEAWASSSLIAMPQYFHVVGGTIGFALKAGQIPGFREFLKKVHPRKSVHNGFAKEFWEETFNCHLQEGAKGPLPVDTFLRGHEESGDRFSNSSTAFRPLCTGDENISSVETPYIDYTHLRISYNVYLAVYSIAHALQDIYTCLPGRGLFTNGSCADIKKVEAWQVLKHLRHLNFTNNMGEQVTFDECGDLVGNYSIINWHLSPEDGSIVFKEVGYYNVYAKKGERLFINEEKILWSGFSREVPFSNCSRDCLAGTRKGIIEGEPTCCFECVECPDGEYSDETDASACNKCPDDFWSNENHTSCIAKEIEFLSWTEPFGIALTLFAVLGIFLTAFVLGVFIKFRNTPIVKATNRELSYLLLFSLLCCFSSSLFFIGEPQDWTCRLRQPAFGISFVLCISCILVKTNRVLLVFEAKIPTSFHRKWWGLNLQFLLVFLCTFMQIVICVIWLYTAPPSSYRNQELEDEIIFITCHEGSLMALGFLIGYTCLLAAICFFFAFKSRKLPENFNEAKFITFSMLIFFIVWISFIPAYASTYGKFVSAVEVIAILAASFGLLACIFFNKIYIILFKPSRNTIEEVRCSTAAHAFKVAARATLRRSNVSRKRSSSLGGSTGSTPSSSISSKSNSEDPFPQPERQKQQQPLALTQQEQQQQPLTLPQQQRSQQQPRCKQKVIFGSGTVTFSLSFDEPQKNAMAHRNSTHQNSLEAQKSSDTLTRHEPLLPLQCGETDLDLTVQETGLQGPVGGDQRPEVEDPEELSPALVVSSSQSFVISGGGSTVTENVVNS
assay: Human CaSR Antagonist Activity (CHO cells, NFAT-Luciferase reporter)
Assay type: cell-based
measurementConditions: CHO, 2 h, 3.3 μm test compound; CaCl2 final 1.3 mM; 100% = reference carboxamide at 10 μM; read-out: Inhibition rate (%) at 3.3 μm
propertyLabel: inhibition at 3.3 µM (%)

| compound | system | inhibition at 3.3 µM (%) |
| --- | --- | --- |
| CC1(C)C[C@H](c2ccccc2)Nc2c(C(=O)N3C[C@@H]4C[C@]4(c4ccc(Cl)c(Cl)c4)C3)cnn21 | human CaSR (Homo sapiens) | 100 |
| CC1(C)C[C@H](c2ccccc2)Nc2c(C(=O)N3C[C@H]4C[C@@]4(c4ccc(Cl)c(Cl)c4)C3)cnn21 | human CaSR (Homo sapiens) | 92 |
| Cc1ccc(C23CN(C(=O)c4cnn5c4N[C@@H](c4ccccc4)CC5(C)C)CC2C3(F)F)cc1 (stereo partly shown) | human CaSR (Homo sapiens) | 117 |
| COc1cccc(C23CC2CN(C(=O)c2cnn4c2N[C@@H](c2ccccc2)CC4(C)C)C3)c1 (stereo partly shown) | human CaSR (Homo sapiens) | 99 |
| CC1(C)C[C@H](c2ccccc2)Nc2c(C(=O)N3CC4CC4(c4ccc(C(F)(F)F)cc4)C3)cnn21 (single isomer, unassigned) | human CaSR (Homo sapiens) | 97 |
| COc1cccc(C23CN(C(=O)c4cnn5c4N[C@@H](c4ccccc4)CC5(C)C)CC2C3(F)F)c1 (stereo partly shown) | human CaSR (Homo sapiens) | 115 |
| CC1(C)C[C@H](c2ccccc2)Nc2c(C(=O)N3CC4CC4(c4cc(Cl)cc(C(F)(F)F)c4)C3)cnn21 (single isomer, unassigned) | human CaSR (Homo sapiens) | 96 |
| COc1ccc(C23CN(C(=O)c4cnn5c4N[C@@H](c4ccccc4)CC5(C)C)CC2C3(F)F)cc1 (stereo partly shown) | human CaSR (Homo sapiens) | 128 |
| CC1(C)C[C@H](c2ccccc2)Nc2c(C(=O)N3CC4CC4(c4ccc(C(F)(F)F)c(Cl)c4)C3)cnn21 (single isomer, unassigned) [Example 11] | human CaSR (Homo sapiens) | 99 |
| CC1(C)C[C@H](c2ccccc2)Nc2c(C(=O)N3C[C@@H]4C[C@]4(C(F)F)C3)cnn21 | human CaSR (Homo sapiens) | 96 |
| CC1(C)C[C@H](c2ccccc2)Nc2c(C(=O)N3CC4CC4(c4cccc(C(F)(F)F)c4)C3)cnn21 (stereo partly shown) | human CaSR (Homo sapiens) | 97 |
| CC1(C)C[C@H](c2ccccc2)Nc2c(C(=O)N3CC4CC4(c4ccsc4)C3)cnn21 (stereo partly shown) | human CaSR (Homo sapiens) | 99 |
| CC1(C)C[C@H](c2ccccc2)Nc2c(C(=O)N3CC4CC4(c4cc(Cl)cc(Cl)c4)C3)cnn21 (single isomer, unassigned) | human CaSR (Homo sapiens) | 100 |
| Cc1cccc(C23CC2CN(C(=O)c2cnn4c2N[C@@H](c2ccccc2)CC4(C)C)C3)c1 (stereo partly shown) | human CaSR (Homo sapiens) | 101 |
| CC1(C)C[C@H](c2ccccc2)Nc2c(C(=O)N3CC4CC4(c4ccc(Cl)c(C(F)(F)F)c4)C3)cnn21 (single isomer, unassigned) | human CaSR (Homo sapiens) | 101 |
| CC1(C)C[C@H](c2ccccc2)Nc2c(C(=O)N3CC4CC4(c4ccc(C(F)(F)F)cc4F)C3)cnn21 (stereo partly shown) | human CaSR (Homo sapiens) | 111 |
| CC1(C)C[C@H](c2ccccc2)Nc2c(C(=O)N3CC4CC4(c4ccncc4)C3)cnn21 (stereo partly shown) | human CaSR (Homo sapiens) | 96 |
| CC1(C)C[C@H](c2ccccc2)Nc2c(C(=O)N3CC4CC4(c4ccc(C(F)(F)F)c(Cl)c4)C3)cnn21 (stereo partly shown) [Example 12] | human CaSR (Homo sapiens) | 90 |
| COc1ccccc1C12CN(C(=O)c3cnn4c3N[C@@H](c3ccccc3)CC4(C)C)CC1C2(F)F (stereo partly shown) | human CaSR (Homo sapiens) | 111 |
| CC1(C)C[C@H](c2ccccc2)Nc2c(C(=O)N3CC4C[C@]4(c4ccc(C(F)(F)F)cc4)C3)cnn21 (stereo partly shown) | human CaSR (Homo sapiens) | 92 |
| Cc1cccc(C23CN(C(=O)c4cnn5c4N[C@@H](c4ccccc4)CC5(C)C)CC2C3(F)F)c1 (stereo partly shown) | human CaSR (Homo sapiens) | 136 |
| CC1(C)C[C@H](c2ccccc2)Nc2c(C(=O)N3CC4CC4(c4cccc(Cl)c4)C3)cnn21 (stereo partly shown) | human CaSR (Homo sapiens) | 100 |
